This collection of values is drawn from patent US12054498B2.

Target: Ba/F3 cells TPM3-TRKA (Homo sapiens, UniProt P04629)
Construct: the other entry of the earlier key: TPM3 (P06753, Tropomyosin alpha-3 chain)
Sequence (P04629 510-796 limits assumed): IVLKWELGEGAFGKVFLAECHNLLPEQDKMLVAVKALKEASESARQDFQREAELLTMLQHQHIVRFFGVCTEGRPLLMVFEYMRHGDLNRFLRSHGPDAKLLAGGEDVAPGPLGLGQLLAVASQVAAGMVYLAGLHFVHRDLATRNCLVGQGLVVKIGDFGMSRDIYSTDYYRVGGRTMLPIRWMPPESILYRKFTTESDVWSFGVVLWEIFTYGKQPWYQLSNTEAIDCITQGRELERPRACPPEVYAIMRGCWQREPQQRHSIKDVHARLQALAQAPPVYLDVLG
Test: Ba/F3 cell proliferation assay, TPM3-TRKA
Settings: 72 hours, CellTiter-Glo, read-out: TPM3-NTRK1-wt IC50
pIC50: −log10 of the molar value.
Reported pIC50 values are given for each entry in this list.

• CCn1nc(C(F)(F)F)c2c1-c1cnc(N)c(c1)O[C@H](C)c1cc(F)ccc1-c1nn(C)nc1C2 [Example 80] = < 6.30
• C[C@H]1Oc2cc(cnc2N)-c2c(cnn2CC2CC2)Cc2nn(C)nc2-c2ccc(F)cc21 [Example 69] = < 6.30
• C[C@H]1Oc2cc(cnc2N)-c2c(c(Cl)nn2CC(F)F)Cc2nn(C)nc2-c2ccc(F)cc21 [Example 60] = < 6.30
• C[C@H]1Oc2cc(cnc2N)-c2c(cnn2CC2CC2)Cc2nn(C(F)F)nc2-c2ccc(F)cc21 [Example 91] = 6.30 to 7.30
• C[C@H]1Oc2cc(cnc2N)-c2c(C#N)nn(C)c2Cc2ncsc2-c2ccc(F)cc21 [Example 57] = < 6.30

Exercise: Would you mind telling me what pIC50 value was observed for C[C@H]1Oc2cc(cnc2N)-c2c(C#N)ncn2Cc2ncc(F)cc2-c2ccc(F)cc21 [Example 48] ?
Key: < 6.30

Exercise: Record request: pIC50 value, item CCn1nc(OC)c2c1-c1cnc(N)c(c1)O[C@H](C)c1cc(F)ccc1-c1cc(C)nn1C2 [Example 32]
Key: 6.30 to 7.30

###

Target: Ba/F3 cells EML4-ALK L1196M/G1202R (variant 1) (Homo sapiens, UniProt Q9UM73, G1202R/L1196M)
Construct: echinoderm microtubule-associated protein-like 4 (EML4) gene and the ALK tyrosine kinase domain; the other entry of the earlier key: EML4 (Q9HC35, Echinoderm microtubule-associated protein-like 4)
Sequence (Q9UM73 with tags, fused parts or gaps L1196M/G1202R): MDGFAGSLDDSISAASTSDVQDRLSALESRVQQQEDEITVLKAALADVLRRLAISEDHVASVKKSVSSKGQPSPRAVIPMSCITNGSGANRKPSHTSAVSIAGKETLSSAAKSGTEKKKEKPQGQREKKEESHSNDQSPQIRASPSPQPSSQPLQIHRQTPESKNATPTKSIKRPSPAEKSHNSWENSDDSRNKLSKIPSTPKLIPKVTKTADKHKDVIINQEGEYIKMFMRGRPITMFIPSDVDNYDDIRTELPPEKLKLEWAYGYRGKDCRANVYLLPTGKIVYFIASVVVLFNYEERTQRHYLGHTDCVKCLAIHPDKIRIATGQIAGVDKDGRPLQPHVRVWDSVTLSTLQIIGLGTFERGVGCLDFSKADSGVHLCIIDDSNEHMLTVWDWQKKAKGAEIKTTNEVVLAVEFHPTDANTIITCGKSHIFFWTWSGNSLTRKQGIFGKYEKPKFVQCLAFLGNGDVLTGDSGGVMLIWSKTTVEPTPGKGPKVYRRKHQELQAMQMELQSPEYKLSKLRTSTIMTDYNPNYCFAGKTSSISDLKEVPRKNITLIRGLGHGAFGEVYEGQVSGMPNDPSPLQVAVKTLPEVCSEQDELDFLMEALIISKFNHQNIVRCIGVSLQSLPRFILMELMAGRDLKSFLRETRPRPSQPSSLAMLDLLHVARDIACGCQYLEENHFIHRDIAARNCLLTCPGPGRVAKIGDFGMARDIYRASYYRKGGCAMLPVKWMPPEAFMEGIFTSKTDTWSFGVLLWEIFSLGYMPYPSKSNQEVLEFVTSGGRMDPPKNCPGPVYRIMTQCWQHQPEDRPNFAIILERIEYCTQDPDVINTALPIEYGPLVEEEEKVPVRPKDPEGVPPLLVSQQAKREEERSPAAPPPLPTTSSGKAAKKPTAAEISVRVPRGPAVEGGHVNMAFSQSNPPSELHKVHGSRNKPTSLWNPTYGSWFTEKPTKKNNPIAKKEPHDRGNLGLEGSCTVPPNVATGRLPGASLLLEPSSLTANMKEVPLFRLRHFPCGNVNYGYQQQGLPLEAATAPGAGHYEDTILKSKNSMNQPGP
Experiment: Ba/F3 cell proliferation assay, EML4-ALK L1196M/G1202R (variant 1)
Details: 72 hours, CellTiter-Glo
pIC50: −log10 of the molar value.
Below, each of the compounds is paired with its reported pIC50 value.

• C[C@H]1Oc2cc(cnc2N)-c2c(cnn2CC2CC2)Cc2nn(C(F)F)nc2-c2ccc(F)cc21 = 7.30 to 10.00
• CCn1ncc2c1-c1cnc(N)c(c1)O[C@H](C)c1cc(F)ccc1-c1c(ncn1C)C2 = 6.30 to 7.30

Moving on to the next compound.
Exercise: I have this compound here, CCn1nc(Cl)c2c1-c1cnc(N)c(c1)O[C@H](C)c1cc(F)ccc1-c1ncnn1C2 , and I need its recorded pIC50.
Key: 6.30 to 7.30

###

The next entries give measured Ki for TRKA-wt (Homo sapiens).

Examples with answers:
- CCn1ncc2c1-c1cnc(N)c(c1)O[C@H](C)c1cc(F)ccc1-c1nc(C)nn1C2: 50 to 500 nM
- CCc1nsc2c1-c1cnc(N)c(c1)O[C@H](C)c1cc(F)ccc1-c1ncnn1C2: > 500 nM
- C[C@H]1Oc2cc(cnc2N)-c2c(cnn2C2COC2)Cc2nn(C)nc2-c2ccc(F)cc21: > 500 nM
- CCn1nnc2c1-c1cnc(N)c(c1)O[C@H](C)c1cc(F)ccc1-c1scnc1C2: > 500 nM
- C[C@H]1Oc2cc(cnc2N)-c2c(cnn2C2CCC2)Cn2nncc2-c2ccc(F)cc21: > 500 nM
- Cc1nn(CC2CC2)c2c1Cc1nn(C)nc1-c1ccc(F)cc1[C@@H](C)Oc1cc-2cnc1N: > 500 nM
- CCn1ncc2c1-c1cnc(N)c(c1)O[C@H](C)c1cc(F)ccc1-c1cnnn1C2: > 500 nM
- C[C@H]1Oc2cc(cnc2N)-c2c(C#N)noc2Cn2nccc2-c2ccc(F)cc21: > 500 nM

Exercise: I would be grateful if you could share the reported Ki for CCn1ncc2c1-c1cnc(N)c(c1)O[C@H](C)c1cc(F)ccc1-c1nccnc1C2 .
Key: 50 to 500 nM

Exercise: Which Ki is reported for this compound? CCn1nc(Cl)c2c1-c1cnc(N)c(c1)O[C@H](C)c1cc(F)ccc1-c1nn(C)nc1C2
Key: > 500 nM

Exercise: What does the record list as Ki for C[C@H]1Oc2cc(cnc2N)-c2c(C#N)noc2Cc2nn(C)nc2-c2ccc(F)cc21 ?
Key: > 500 nM

Exercise: // lookup Ki for CCc1noc2c1-c1cnc(N)c(c1)O[C@H](C)c1cc(F)ccc1-c1nnnn1C2
Key: 50 to 500 nM

Exercise: Given the entry C[C@H]1Oc2cc(cnc2N)-c2c(C3CCC3)noc2Cc2nn(C)nc2-c2ccc(F)cc21 , report its measured Ki.
Key: > 500 nM

Exercise: Reported Ki, compound C[C@H]1Oc2cc(cnc2N)-c2c(cnn2C2CCC2)Cn2ncnc2-c2ccc(F)cc21 : ____
Key: > 500 nM

Exercise: Quick check: Ki of CCn1nnc2c1-c1cnc(N)c(c1)O[C@H](C)c1cc(F)ccc1-c1cc(Cl)nn1C2 ?
Key: 50 to 500 nM

###

Parameter pIC50: see the listing below.
Molecular target: Ba/F3 cells EML4-ALK wt (variant 1) (Homo sapiens)
Construct: echinoderm microtubule-associated protein-like 4 (EML4) gene and the ALK tyrosine kinase domain; the other entry of the earlier key: EML4 (Q9HC35, Echinoderm microtubule-associated protein-like 4)
Assay: Ba/F3 cell proliferation assay, EML4-ALK wt (variant 1)
Details: 72 hours, CellTiter-Glo
pIC50: −log10 of the molar value.

- CCn1ncc2c1-c1cnc(N)c(c1)OC(C)c1cc(F)cnc1-c1ccnn1C2 (stereo not shown): 7.30 to 10.00
- Cc1nn(CC2CC2)c2c1Cn1nccc1-c1ccc(F)cc1[C@@H](C)Oc1cc-2cnc1N: 7.30 to 10.00
- C[C@H]1Oc2cc(cnc2N)-c2c(cnn2CC(F)F)Cn2nc(Cl)cc2-c2ccc(F)cc21: 7.30 to 10.00
- CCn1ncc2c1-c1cnc(N)c(c1)O[C@H](C)c1cc(F)ccc1-c1c(C#N)cnn1C2: 7.30 to 10.00
- Cc1nn(CC2CC2)c2c1Cn1nc(Cl)cc1-c1ccc(F)cc1[C@@H](C)Oc1cc-2cnc1N: 6.30 to 7.30
- Cc1nc2c(o1)-c1ccc(F)cc1[C@@H](C)Oc1cc(cnc1N)-c1c(cnn1CC1CC1)C2: 7.30 to 10.00

Exercise: What does the data say about its pIC50? Entry: C[C@H]1Oc2cc(cnc2N)-c2c(cnn2C2CCC2)Cn2ncnc2-c2ccc(F)cc21
Key: 7.30 to 10.00

Exercise: Looking for the measured pIC50 of CCn1ccc2c1-c1cnc(N)c(c1)O[C@H](C)c1cc(F)ccc1-c1nn(C)nc1C2 , can you help?
Key: 6.30 to 7.30

###

Biological target: Ba/F3 cells TPM3-TRKA (Homo sapiens)
Construct: the other entry of the earlier key: TPM3 (P06753, Tropomyosin alpha-3 chain)
Assay: Ba/F3 cell proliferation assay, TPM3-TRKA
Settings: 72 hours, CellTiter-Glo, read-out: TPM3-NTRK1-wt IC50
pIC50: −log10 of the molar value.
Entries and their pIC50 values follow.

Past entries and their recorded results:
• C[C@H]1Oc2cc(cnc2N)-c2c(cnn2CC2CC2)Cc2nn(C)cc2-c2ccc(F)cc21 = < 6.30
• CCn1ccc2c1-c1cnc(N)c(c1)O[C@H](C)c1cc(F)ccc1-c1nn(C)nc1C2 = < 6.30
• CCn1nc(Cl)c2c1-c1cnc(N)c(c1)O[C@H](C)c1cc(F)ccc1-c1oc(C)nc1C2 = < 6.30
• C[C@H]1Oc2cc(cnc2N)-c2c(CC3CC3)nn(C)c2Cn2ncnc2-c2ccc(F)cc21 = < 6.30
• CCn1nnc2c1-c1cnc(N)c(c1)O[C@H](C)c1cc(F)ccc1-c1cc(Cl)nn1C2 = 6.30 to 7.30
• CCn1ncc2c1-c1cnc(N)c(c1)O[C@H](C)c1cc(F)ccc1-c1cc(Cl)nn1C2 = 6.30 to 7.30
• CCn1ncc2c1-c1cnc(N)c(c1)O[C@H](C)c1cc(F)ccc1-c1c(C#N)cnn1C2 = < 6.30

Exercise: Lab note: need pIC50 for C[C@H]1Oc2cc(cnc2N)-c2c(C#N)noc2Cc2nn(C)nc2-c2ccc(F)cc21 on Ba/F3 cells TPM3-TRKA (Homo sapiens), anyone have it?
Key: < 6.30

###

Target: Ba/F3 cells EML4-ALK wt (variant 1) (Homo sapiens, UniProt Q9UM73)
Construct: echinoderm microtubule-associated protein-like 4 (EML4) gene and the ALK tyrosine kinase domain; the other entry of the earlier key: EML4 (Q9HC35, Echinoderm microtubule-associated protein-like 4)
Sequence (Q9UM73 with tags, fused parts or gaps): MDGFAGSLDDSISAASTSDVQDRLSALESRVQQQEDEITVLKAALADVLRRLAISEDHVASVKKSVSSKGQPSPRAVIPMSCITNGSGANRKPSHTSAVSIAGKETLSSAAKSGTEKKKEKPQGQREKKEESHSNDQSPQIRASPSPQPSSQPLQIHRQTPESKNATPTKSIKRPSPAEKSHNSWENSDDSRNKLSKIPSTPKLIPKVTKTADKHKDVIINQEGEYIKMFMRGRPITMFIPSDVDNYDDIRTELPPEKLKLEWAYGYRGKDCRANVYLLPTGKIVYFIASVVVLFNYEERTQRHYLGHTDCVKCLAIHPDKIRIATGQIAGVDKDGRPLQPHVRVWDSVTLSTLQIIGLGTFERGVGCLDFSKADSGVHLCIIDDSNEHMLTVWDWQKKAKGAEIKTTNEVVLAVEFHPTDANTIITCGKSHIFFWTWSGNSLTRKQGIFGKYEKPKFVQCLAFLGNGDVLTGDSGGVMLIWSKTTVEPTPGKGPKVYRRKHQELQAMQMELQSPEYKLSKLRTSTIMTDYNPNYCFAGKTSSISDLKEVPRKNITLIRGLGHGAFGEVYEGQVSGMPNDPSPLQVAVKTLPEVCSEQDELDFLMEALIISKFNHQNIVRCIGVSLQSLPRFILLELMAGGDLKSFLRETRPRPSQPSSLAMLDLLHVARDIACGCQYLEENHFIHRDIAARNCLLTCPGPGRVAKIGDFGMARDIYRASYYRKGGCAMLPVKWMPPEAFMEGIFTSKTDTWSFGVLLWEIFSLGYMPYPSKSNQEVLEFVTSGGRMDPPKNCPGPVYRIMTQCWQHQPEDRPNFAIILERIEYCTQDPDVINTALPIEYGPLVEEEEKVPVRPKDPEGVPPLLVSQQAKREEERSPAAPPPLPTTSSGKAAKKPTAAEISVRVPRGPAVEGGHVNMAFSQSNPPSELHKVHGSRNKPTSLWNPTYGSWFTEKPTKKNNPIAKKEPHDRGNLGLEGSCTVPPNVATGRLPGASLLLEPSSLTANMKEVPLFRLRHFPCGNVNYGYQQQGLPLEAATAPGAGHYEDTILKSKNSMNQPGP
Assay: Ba/F3 cell proliferation assay, EML4-ALK wt (variant 1)
Details: 72 hours, CellTiter-Glo
pIC50: −log10 of the molar value.
Reported pIC50 values are given for each entry in this list.

Use these answered entries as a reference point.
• C[C@H]1Oc2cc(cnc2N)-c2c(CC3CC3)nn(C)c2Cc2nn(C)nc2-c2ccc(F)cc21 = 7.30 to 10.00
• Cc1nc2c(o1)-c1ccc(F)cc1C(C)Oc1cc(cnc1N)-c1c(c(Cl)nn1CC1CC1)C2 (centres unmarked) = 6.30 to 7.30
• CCn1nc(C(F)(F)F)c2c1-c1cnc(N)c(c1)O[C@H](C)c1cc(F)ccc1-c1nn(C)nc1C2 = 6.30 to 7.30
• C[C@H]1Oc2cc(cnc2N)-c2c(cnn2CC(F)F)Cc2nn(C)nc2-c2ccc(F)cc21 = 7.30 to 10.00
• C[C@H]1Oc2cc(cnc2N)-c2c(C#N)ncn2Cc2nccnc2-c2ccc(F)cc21 = 7.30 to 10.00

Exercise: pIC50 lookup needed for CCn1ncc2c1-c1cnc(N)c(c1)OCc1cc(F)ccc1-c1ccnn1C2 , thanks.
Key: 6.30 to 7.30

Exercise: pIC50 lookup needed for C[C@H]1Oc2cc(cnc2N)-c2c(cnn2CC2CC2)Cc2nn(C)cc2-c2ccc(F)cc21 , thanks.
Key: 7.30 to 10.00

Exercise: Fill in the blank: the reported pIC50 of CCc1noc2c1-c1cnc(N)c(c1)O[C@H](C)c1cc(F)ccc1-c1nnnn1C2 is ____.
Key: 6.30 to 7.30
